Value source: PubChem BioAssay AID2060620

Test system: 328373-195-R-J1-PDC complex spheroids, viability % test/control;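 also: spheroids exposed to the agents for 7 days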
Experiment: Anticancer human tumor 328373-195-R-J1-PDC patient-derived head and neck squamous carcinoma cell line growth inhibition [CLK]; active = viability on the fitted dose curve at most 10% of control; inactive = the rest
Settings: second compound 3.16 µM; first compound 0.316 µM
Text: A high-throughput screen of multi-cell type tumor spheroids was designed to identify active combinations of […] and targeted small molecules. Complex spheroids include a stromal component modeled by human endothelial cells (HUVEC) and fibroblasts modeled by human mesenchymal stem cells (MSCs). […] Compounds. […] If the clinical Cmax for an agent had not been determined, the highest concentration tested was 10 microM. […]
Please answer using one outcome listed in label 1 for active, label 0 for inactive

Worked examples, 3 compounds total:
compound	class
COc1ccc([C@@H](O)c2cc(-c3ncnc4cc(N5CCOCC5)ccc34)c(F)cc2Cl)nn1 + CNC(=O)c1ccc(Nc2nc(OC3CCCC3)c3c(-c4ccc5nc(C)oc5c4)c[nH]c3n2)c(OC)c1	label 0
CC(Nc1ccc2c(c1)OCCn1cc(N3C(=O)OCC3C(F)F)nc1-2)C(N)=O (centres undefined) + CN1CCN(c2cc(C(=O)Nc3cc4cc(-c5cnn(C)c5)ccc4cn3)ccn2)CC1	label 1
CC(=O)O[C@H]1C(=O)[C@@]2(C)[C@H]([C@H](OC(=O)c3ccccc3)[C@]3(O)C[C@H](OC(=O)[C@H](O)[C@@H](NC(=O)c4ccccc4)c4ccccc4)C(C)=C1C3(C)C)[C@]1(OC(C)=O)CO[C@@H]1C[C@@H]2O + CNC(=O)c1ccc(Nc2nc(OC3CCCC3)c3c(-c4ccc5nc(C)oc5c4)c[nH]c3n2)c(OC)c1	label 0

Field: next compound
IN: # outcome recorded in this test, key = C=CC(=O)N1CCN(c2nc(=O)n(-c3c(C)ccnc3C(C)C)c3nc(-c4c(O)cccc4F)c(F)cc23)C(C)C1 (centres undefined) + CN1CCN(c2cc(C(=O)Nc3cc4cc(-c5cnn(C)c5)ccc4cn3)ccn2)CC1
OUT: label 1
